Target: EGFR L858R/T790M mutant (Homo sapiens (Human), UniProt P00533, L858R/T790M)
Sequence (P00533 25-1210 T790M/L858R): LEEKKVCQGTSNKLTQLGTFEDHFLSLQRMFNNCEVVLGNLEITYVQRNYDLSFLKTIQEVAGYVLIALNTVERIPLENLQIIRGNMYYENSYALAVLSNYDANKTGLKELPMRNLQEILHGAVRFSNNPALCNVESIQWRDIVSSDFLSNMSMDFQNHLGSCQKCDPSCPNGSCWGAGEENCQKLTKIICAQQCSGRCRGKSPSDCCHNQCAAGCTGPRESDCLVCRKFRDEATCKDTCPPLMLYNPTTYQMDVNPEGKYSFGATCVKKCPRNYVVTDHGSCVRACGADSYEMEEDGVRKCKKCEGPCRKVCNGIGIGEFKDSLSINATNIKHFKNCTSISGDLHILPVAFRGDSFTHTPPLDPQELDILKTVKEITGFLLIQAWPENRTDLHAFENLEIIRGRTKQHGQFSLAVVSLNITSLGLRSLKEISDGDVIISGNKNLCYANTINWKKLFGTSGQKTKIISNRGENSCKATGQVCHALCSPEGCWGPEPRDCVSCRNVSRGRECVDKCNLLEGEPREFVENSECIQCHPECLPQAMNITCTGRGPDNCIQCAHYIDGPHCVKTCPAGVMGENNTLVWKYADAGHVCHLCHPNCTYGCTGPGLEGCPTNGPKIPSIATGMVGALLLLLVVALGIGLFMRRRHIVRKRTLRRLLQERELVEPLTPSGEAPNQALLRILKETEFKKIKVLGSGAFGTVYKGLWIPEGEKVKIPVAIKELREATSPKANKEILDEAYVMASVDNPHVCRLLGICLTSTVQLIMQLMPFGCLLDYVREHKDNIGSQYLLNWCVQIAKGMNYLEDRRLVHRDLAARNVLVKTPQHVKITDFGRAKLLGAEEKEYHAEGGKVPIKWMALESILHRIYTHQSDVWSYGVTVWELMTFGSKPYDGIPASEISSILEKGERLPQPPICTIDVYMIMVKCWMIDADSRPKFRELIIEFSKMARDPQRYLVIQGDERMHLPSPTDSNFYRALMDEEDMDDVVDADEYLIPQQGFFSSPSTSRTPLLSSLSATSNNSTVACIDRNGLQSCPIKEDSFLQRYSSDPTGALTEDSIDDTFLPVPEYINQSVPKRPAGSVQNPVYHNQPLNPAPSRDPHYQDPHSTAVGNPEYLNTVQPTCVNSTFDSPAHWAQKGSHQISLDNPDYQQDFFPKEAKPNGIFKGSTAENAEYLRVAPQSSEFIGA
Assay: HotSpot radiometric kinase assay, EGFR L858R/T790M mutant
Details: 10 μM ATP
Protocol: Biochemical Assays for Inhibition of Wild-Type and Mutant EGFRs Briefly, specific kinase/substrate pairs along with required cofactors were prepared in reaction buffer; 20 mM Hepes pH 7.5, 10 mM […], 1 mM EGTA, 0.02% Brij35, 0.02 mg/ml BSA, 0.1 mM Na3VO4, 2 mM DTT, 1% DMSO. Compounds were delivered into the reaction, followed […] later by addition of a mixture of ATP (Sigma, St. Louis MO) and ^33P ATP (Perkin Elmer, Waltham MA) to a final concentration of 10 μM. […]
pIC50: −log10 of the molar value.
measure.name: pIC50

Solved entries:
C[C@H]1CN(C)Cc2c(c(O[C@H]3CCN(S(C)(=O)=O)C3)nn2CCO)/C=C/c2n[nH]c3ccc(cc23)-c2cnn(C)c2O1
9.27
Cc1nn(CCO)c2c1/C=C/c1n[nH]c3ccc(cc13)-c1cnn(C)c1OCCCO2
8.73

P: Cc1nn(C)c2c1/C=C/c1n[nH]c3ccc(cc13)-c1cnn(C)c1O[C@@H]1CCCN(C2)C1
Q: CCN1Cc2nn(C)c(C)c2/C=C/c2n[nH]c3ccc(cc23)-c2cnn(C)c2O[C@@H](C)C1
Query: Between item P and item Q , which reported pIC50 is smaller? Let me know the label of the one you choose.
Result: P
(P: 8.84, Q: 9.15)
